# subject of test: Tie2 (Homo sapiens)
# method: Tie-2 ELISA: angiopoietin-2 stimulated Tie2 autophosphorylation in Tie2-transfected CHO cells (Biological Experiment 1)
# Type: cell-based
# Set-up: expressed in transfected cells; host or cells: CHO (DHFR-deficient), stably transfected
# run parameters: mean IC50; CHO Tie2/DHFR cells stimulated with Ang2-Fc
# Excerpt: Biological Experiment 1: ELISA-Assay Herein CHO cell-cultures, which are stably transfected by known techniques with Tie2 using DHFR deficiency as selection marker, are stimulated by angiopoietin-2. The specific autophosphorylation of Tie2 receptors is quantified with a sandwich-ELISA using anti-Tie2 antibodies for catch and anti-phosphotyrosine antibodies coupled to HRP as detection. […]
# Sequence (Q02763 23-1124): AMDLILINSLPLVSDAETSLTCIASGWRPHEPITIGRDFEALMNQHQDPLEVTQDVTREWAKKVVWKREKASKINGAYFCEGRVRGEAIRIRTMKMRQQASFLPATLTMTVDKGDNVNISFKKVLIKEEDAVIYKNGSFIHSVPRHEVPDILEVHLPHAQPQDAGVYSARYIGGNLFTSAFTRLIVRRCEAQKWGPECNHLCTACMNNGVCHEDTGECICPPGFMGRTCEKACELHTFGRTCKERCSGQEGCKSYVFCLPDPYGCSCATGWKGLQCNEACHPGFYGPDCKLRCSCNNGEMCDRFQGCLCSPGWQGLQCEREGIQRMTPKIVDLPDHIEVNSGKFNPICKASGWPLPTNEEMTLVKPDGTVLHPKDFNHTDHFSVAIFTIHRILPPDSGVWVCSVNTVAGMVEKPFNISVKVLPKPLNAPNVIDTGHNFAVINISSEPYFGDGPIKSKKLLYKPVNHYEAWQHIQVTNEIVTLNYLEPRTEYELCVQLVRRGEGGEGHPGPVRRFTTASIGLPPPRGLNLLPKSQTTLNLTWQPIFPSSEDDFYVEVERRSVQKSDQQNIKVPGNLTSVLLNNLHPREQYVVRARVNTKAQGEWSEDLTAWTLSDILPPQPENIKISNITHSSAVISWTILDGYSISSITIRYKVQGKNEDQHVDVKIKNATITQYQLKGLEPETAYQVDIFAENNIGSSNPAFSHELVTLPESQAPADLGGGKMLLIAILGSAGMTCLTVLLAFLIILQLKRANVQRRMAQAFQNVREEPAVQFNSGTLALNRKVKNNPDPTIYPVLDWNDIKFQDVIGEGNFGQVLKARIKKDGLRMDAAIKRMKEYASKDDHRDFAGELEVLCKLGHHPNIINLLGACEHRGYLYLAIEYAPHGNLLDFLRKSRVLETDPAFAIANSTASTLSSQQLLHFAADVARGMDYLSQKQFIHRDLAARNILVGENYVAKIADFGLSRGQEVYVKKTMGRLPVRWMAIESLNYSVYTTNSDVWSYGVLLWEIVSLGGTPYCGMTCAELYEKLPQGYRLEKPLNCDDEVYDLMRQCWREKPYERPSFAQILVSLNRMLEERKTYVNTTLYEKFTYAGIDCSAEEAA
pIC50: −log10 of the molar value.
readout: pIC50

For each of the molecules below, note its pIC50.
1. CC(C)(C)c1cc(-c2ccc(NC(=O)Nc3cccc(C(F)(F)F)c3)cc2)c2c(N)n[nH]c2n1
2. CC(C)(C)c1cc(-c2ccc(NC(=O)Nc3cccc(F)c3)cc2)c2c(N)n[nH]c2n1
3. CC(C)c1cc(-c2ccc(NC(=O)Nc3cccc(C(F)(F)F)c3)cc2)c2c(N)n[nH]c2n1
4. CC(C)(C)c1cc(-c2ccc(NS(=O)(=O)c3ccccc3)cc2)c2c(N)n[nH]c2n1

["≥ 6.30", "≥ 6.30", "≥ 6.30", "5.70 to 6.30"]

For each of the molecules below, note its pIC50.
1. Nc1n[nH]c2nc(C3CC3)cc(-c3ccc(NC(=O)Nc4ccccc4F)cc3)c12
2. CC(C)(C)c1cc(-c2ccc(NC(=O)C3(c4ccccc4)CC3)cc2)c2c(N)n[nH]c2n1
3. CC(C)(C)c1cc(-c2ccc(NC(=O)Nc3ccc(F)cc3)cc2)c2c(N)n[nH]c2n1
4. Cc1ccc(C(=O)Nc2ccc(-c3cc(C(C)(C)C)nc4[nH]nc(N)c34)cc2)cc1
5. Cc1cccc(NC(=O)Nc2ccc(-c3cc(C(C)(C)C)nc4[nH]nc(N)c34)cc2)c1

["≥ 6.30", "≥ 6.30", "≥ 6.30", "5.70 to 6.30", "≥ 6.30"]

Which pIC50 value is on record for CC(C)(C)c1cc(-c2ccc(NC(=O)Cc3ccccc3)cc2)c2c(N)n[nH]c2n1 ?
5.70 to 6.30

* * *

Would you kindly list IC50 for each of these compounds?
# subject of test: Tie2 (Homo sapiens)
# method: Tie-2 kinase assay without preactivation of kinase (Biological Experiment 3, HTRF)
# Format: biochemical
# Parameters: fusion protein of GST and the intracellular domains of Tie-2; GST; made in house; host or cells: insect cells (Hi-5)
# run parameters: mean IC50; GST-Tie-2 without preactivation, 10 μM ATP; read-out: Inhibition of Tie-2 kinase (Biological Experiment 3)
# Sequence (Q02763 770-1124 limits assumed): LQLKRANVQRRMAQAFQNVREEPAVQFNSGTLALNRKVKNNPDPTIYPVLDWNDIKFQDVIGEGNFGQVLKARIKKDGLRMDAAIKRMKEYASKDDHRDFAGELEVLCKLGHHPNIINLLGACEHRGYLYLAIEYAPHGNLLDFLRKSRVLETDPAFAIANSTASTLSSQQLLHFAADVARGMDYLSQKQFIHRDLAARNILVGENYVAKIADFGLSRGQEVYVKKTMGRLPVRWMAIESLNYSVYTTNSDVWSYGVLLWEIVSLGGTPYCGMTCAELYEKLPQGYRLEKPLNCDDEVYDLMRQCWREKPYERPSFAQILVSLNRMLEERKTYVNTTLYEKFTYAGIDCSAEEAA

Recorded IC50, per entry:
1) CC(C)c1cc(-c2ccc(NC(=O)Nc3cccc(C(F)(F)F)c3)cc2)c2c(N)n[nH]c2n1 [Example 16] :: ≤ 500 nM
2) CC(C)(C)c1cc(-c2ccc(NS(=O)(=O)c3ccccc3)cc2)c2c(N)n[nH]c2n1 [Example 2] :: 500 to 2000 nM
3) CC(C)(C)c1cc(-c2ccc(NC(=O)Nc3cccc(C(F)(F)F)c3)cc2)c2c(N)n[nH]c2n1 [Example 27] :: ≤ 500 nM

For each of the compounds below, note its IC50.
1. Nc1n[nH]c2nc(C3CC3)cc(-c3ccc(NC(=O)Nc4ccccc4F)cc3)c12 [Example 15]
2. CC(C)(C)c1cc(-c2ccc(NC(=O)Nc3cccc(F)c3)cc2)c2c(N)n[nH]c2n1 [Example 3]
3. Cc1cccc(NC(=O)Nc2ccc(-c3cc(C(C)(C)C)nc4[nH]nc(N)c34)cc2)c1 [Example 9]
4. CC(C)(C)c1cc(-c2ccc(NC(=O)Nc3ccccc3)cc2)c2c(N)n[nH]c2n1 [Example 1]
5. Nc1n[nH]c2nc(C3CC3)cc(-c3ccc(NC(=O)Nc4ccccc4)cc3)c12 [Example 14]
6. CC(C)(C)c1cc(-c2ccc(NC(=O)C(C)(C)c3ccccc3)cc2)c2c(N)n[nH]c2n1 [Example 51]

1: ≤ 500 nM; 2: 500 to 2000 nM; 3: ≤ 500 nM; 4: ≤ 500 nM; 5: 500 to 2000 nM; 6: 500 to 2000 nM

For each of the compounds below, note its IC50.
1. Cc1ccc(C(=O)Nc2ccc(-c3cc(C(C)(C)C)nc4[nH]nc(N)c34)cc2)cc1 [Example 17]
2. CC(C)(C)c1cc(-c2ccc(NC(=O)Nc3ccc(F)cc3)cc2)c2c(N)n[nH]c2n1 [Example 12]
3. Cc1ccc(F)c(NC(=O)Nc2ccc(-c3cc(C(C)(C)C)nc4[nH]nc(N)c34)cc2)c1 [Example 31]
4. CC(C)(C)c1cc(-c2ccc(NC(=O)Nc3cc(C(F)(F)F)ccc3F)cc2)c2c(N)n[nH]c2n1 [Example 37]
5. CC(C)(C)c1cc(-c2ccc(NC(=O)Cc3ccccc3)cc2)c2c(N)n[nH]c2n1 [Example 47]
6. CC(C)(C)c1cc(-c2ccc(NC(=O)C3(c4ccccc4)CC3)cc2)c2c(N)n[nH]c2n1 [Example 49]

500 to 2000 nM
500 to 2000 nM
≤ 500 nM
≤ 500 nM
500 to 2000 nM
≤ 500 nM
